These data points were gathered from patent US4559402A.

assay: Acute Toxicity (LD50), rats; details: rat, in vivo, iv, read-out: Acute Toxicity LD50, I.V.
Attribute Measured: LD50

// query Give a short answer stating reported LD50 for Cc1nn2ccccc2c1C(=O)C1=CNCCC1 [Example 2] .
// result > 100 mg/kg

###

test: Acute Toxicity (LD50), mice; conditions: mouse, in vivo, iv, read-out: Acute Toxicity LD50, I.V.
Attribute Measured: LD50

// query Provide one value: measured LD50 of `Cc1nn2ccccc2c1C(=O)C1=CNCCC1`
// result 125 to 150 mg/kg

###

experiment: Acute Toxicity (LD50), rats; conditions: rat, in vivo, po, read-out: Acute Toxicity LD50, P.O.
Attribute Measured: LD50

// query Retrieve LD50 measured for `Cc1nn2ccccc2c1C(=O)C1=CNCCC1` and print it.
// result > 1000 mg/kg

###

test: Gastro-intestinal lesions in rats (ulcerogenic activity); design: species or system Male Wistar rats; conditions: rat, in vivo, po, UD50 (dose that cause the lesions in 50% of animals), Satiety
Attribute Measured: TD50 at 24 h

// query Give reported TD50 at 24 h value for Cc1nn2ccccc2c1C(=O)C1=CNCCC1 [Example 2]
// result > 1000 mg/kg

###

assay: Gastro-intestinal lesions in rats (ulcerogenic activity); design: species or system Male Wistar rats; details: rat, in vivo, po, not fasted, 24 hours, read-out: UD50 (dose that cause the lesions in 50% of animals), Satiety
Attribute Measured: TD50 at 24 h (mg/kg)
Response body: numeric value in mg/kg, unit text excluded.

// query Look up and report measured TD50 at 24 h for this entry: CC(=O)Oc1ccccc1C(=O)O [Aspirin, reference compound]
// result 230

###

// IC100 lookup, one value per entry
test system: Rabbit platelet aggregation induced by arachidonic acid; assay: Effects on rabbit platelet aggregation in vitro (PRP), arachidonic acid-induced; assay type: cell-based; conditions: Oryctolagus cuniculus, 0.05 h, arachidonic acid 10^-4 M, 3 min. preincubation, read-out: IC100 (concentration which gave maximum (100%) inhibition against platelet aggregation)
// return the numeric value with its unit appended

Answered examples (5):
> print(dat)
                                   molecule  attribute.measured  measured.value
1            Cc1nn2c(c1C(=O)C1=CNCCC1)CCCC2               IC100       0.2 µg/mL
2  Cc1nn2ccccc2c1C(=O)C1=CN(C(=O)Nc2ccc(Cl)cc2)CCC1               IC100         1 µg/mL
3  CC(=O)Oc1ccccc1C(=O)O [Aspirin, reference compound]               IC100         4 µg/mL
4              Cc1nn2ccccc2c1C(=O)C1=CNCCC1               IC100      0.03 µg/mL
5  CCOC(=O)C(C)N1C=C(C(=O)c2c(C)nn3ccccc23)CCC1 (stereo not drawn)               IC100       0.3 µg/mL

Now take the following molecule into account.
// query Supply reported IC100 belonging to this molecule: `Cc1nn2ccccc2c1C(=O)c1cccnc1`
// result 6 µg/mL

###

assay: Gastro-intestinal lesions in rats (ulcerogenic activity); set-up: species or system Male Wistar rats; settings: rat, in vivo, po, UD50 (dose that cause the lesions in 50% of animals), Fasting
Attribute Measured: TD50 at 24 h

// query Report TD50 at 24 h, nothing else, for this compound: `Cc1nn2ccccc2c1C(=O)C1=CNCCC1`
// result 300 to 500 mg/kg
